- protocol_summary: CMR value (relative to BAY K 8644)
- Assay type: ADME
quantity: CMR

compound	CMR
COC(=O)c1c(C)[nH]c(C)c1C(=O)c1ccccc1C(F)(F)F	7.6
COC(=O)c1c(C)[nH]c(C)c1C(=O)c1ccccc1Cc1ccc(N)cc1	10.43
COC(=O)c1c(C)[nH]c(C)c1C(=O)c1ccccc1SCc1ccccc1	10.87
COC(=O)c1c(C)[nH]c(C)c1C(=O)c1ccccc1[S+]([O-])c1ccccc1 (stereo not given)	10.44
COC(=O)c1c(C)[nH]c(C)c1C(=O)c1ccccc1Nc1ccccc1	9.96
COC(=O)c1c(C)[nH]c(C)c1C(=O)c1ccccc1Cc1ccc(F)cc1	10.08
COC(=O)c1c(C)[nH]c(C)c1C(=O)c1ccccc1Br	7.86
COC(=O)c1c(C)[nH]c(C)c1C(=O)c1ccccc1OS(=O)(=O)c1ccc(C)cc1	10.62
COC(=O)c1c(C)[nH]c(C)c1C(=O)c1ccc(Cl)cc1Cl	8.07
COC(=O)c1c(C)[nH]c(C)c1C(=O)c1ccccc1C(=O)Oc1ccccc1O	10.4

Reference for the values: ChEMBL document CHEMBL1127707
